// data source = patent US20160102052A1

tested on: Exophiala dermatitidis CA01; assay: Broth microdilution chequerboard analysis of Lynovex (NM001) in combination with clinical antifungals; type: cell-based; details: Range; in combination with Lynovex (NM001); 96 h, 35° C.
Measure: Antifungal MIC50 in Combination

1. CCC(C)n1ncn(-c2ccc(N3CCN(c4ccc(OCC5COC(Cn6cncn6)(c6ccc(Cl)cc6Cl)O5)cc4)CC3)cc2)c1=O (stereo not shown)
0.06 to 2 µg/mL
2. C[C@@H]1[C@H](O)[C@@H](C)/C=C/C=C/C=C/C=C/C=C/C=C/C=C/[C@H](O[C@@H]2O[C@H](C)[C@@H](O)[C@H](N)[C@@H]2O)C[C@@H]2O[C@](O)(C[C@@H](O)C[C@@H](O)[C@H](O)CC[C@@H](O)C[C@@H](O)CC(=O)O[C@H]1C)C[C@H](O)[C@H]2C(=O)O
0.12 to 0.23 µg/mL
3. CC[C@H](C)C[C@H](C)CCCCCCCCC(=O)N[C@H]1C[C@@H](O)[C@@H](NCCN)NC(=O)[C@@H]2[C@@H](O)CCN2C(=O)[C@H]([C@H](O)CCN)NC(=O)[C@H]([C@H](O)[C@@H](O)c2ccc(O)cc2)NC(=O)[C@@H]2C[C@@H](O)CN2C(=O)[C@H]([C@@H](C)O)NC1=O
3.91 to 31.25 µg/mL
4. OC(Cn1cncn1)(Cn1cncn1)c1ccc(F)cc1F
7.81 to 125 µg/mL
